Tested on: HepG2
Assay: cytotoxicity call (relative viability < 0.9)
Conditions: 10 µM
Among all 39,000 compounds or so, about 3,300 (8.5%) were called active. The full list was thinned out, with actives kept by preference.
Please state which outcome applies, choosing from active, inactive

// query Recorded test call requested for C=CC[C@H](CC(=O)NCCO)C(=O)NC[C@H](OC(=O)[C@@H](CC=C)CC(=O)OC(C)(C)C)c1ccccc1
// result inactive

// query Here is the next compound: O=c1c(O)c(-c2ccc(O)c(O)c2)oc2c(O[C@@H]3O[C@H](CO)[C@H](O)[C@@H](O)[C@H]3O)c(O)cc(O)c12
// result active

// query Here is the next compound: C[C@@H]1CN([C@@H](C)CO)C(=O)c2cc(NC(=O)Nc3ccc4c(c3)OCO4)ccc2O[C@H]1CN(C)C(=O)Nc1cccc2ccccc12
// result inactive

// query Here is the next compound: CCNC(=O)c1csc(N)n1
// result inactive

// query Here is the next compound: C[C@@H]1O[C@@H](O[C@@H]2[C@@H](O)[C@H](C)O[C@@H](OC[C@H]3O[C@@H](Oc4c(-c5ccc(O)c(O)c5)oc5cc(O)cc(O)c5c4=O)[C@@H](O)[C@@H](O)[C@@H]3O)[C@@H]2O)[C@H](O)[C@H](O)[C@H]1O
// result inactive

// query Here is the next compound: COc1c(O[C@@H]2O[C@H](CO)[C@@H](O)[C@H](O)[C@H]2O)cc2oc(-c3ccc(O)c(O)c3)c(O)c(=O)c2c1O
// result inactive

// query Here is the next compound: C[C@@H]1CCCCO[C@@H](CN(C)C(=O)CCC(F)(F)F)[C@@H](C)CN([C@H](C)CO)C(=O)c2cc(NS(=O)(=O)c3cccs3)ccc2O1
// result inactive

----------
Test system: HepG2
Assay: cytotoxicity call (relative viability < 0.9)
Settings: 10 µM
Among all 39,000 compounds or so, about 3,300 (8.5%) were called active. The full list was thinned out, with actives kept by preference.
Please state which outcome applies, choosing from active, inactive

// query Recorded test call requested for C[C@@H]1CN([C@@H](C)CO)C(=O)Cc2cc(NC(=O)Nc3ccccc3)ccc2O[C@H]1CN(C)C(=O)Nc1ccc(C(F)(F)F)cc1
// result inactive

// query Here is the next molecule: C[n+]1ccc(/C2=C3\C=CC(=N3)/C(c3cc[n+](C)cc3)=c3/cc/c4[n]3[Fe][n]3c2ccc3/C(c2cc[n+](C)cc2)=C2/C=CC(=N2)\C=4c2cc[n+](C)cc2)cc1
// result active

// query Here is the next molecule: C[C@@H]1CN([C@@H](C)CO)C(=O)c2cc(NC(=O)Nc3ccccc3)ccc2O[C@@H](C)CCCCO[C@@H]1CN(C)Cc1ccccc1
// result inactive

// query Here is the next molecule: COc1ccc([C@H]([C@H](Cc2ccccc2)OC(C)=O)N(C[C@H](/C=C/c2ccccc2)CC(=O)N(C)C)[C@@H](Cc2ccccc2)C(OC)OC)cc1
// result active

// query Here is the next molecule: COc1ccc([C@H]([C@H](Cc2ccccc2)OC(C)=O)N(C[C@H](/C=C/c2ccccc2)OC(C)=O)[C@@H](Cc2ccccc2)C(OC)OC)cc1
// result inactive

// query Here is the next molecule: O=C(O)c1ccc(/C2=C3\C=CC(=N3)/C(c3ccc(C(=O)O)cc3)=c3/cc/c4[n]3[Mn+][n]3c2ccc3/C(c2ccc(C(=O)O)cc2)=C2/C=CC(=N2)\C=4c2ccc(C(=O)O)cc2)cc1
// result inactive

// query Here is the next molecule: C[C@H](CO)N1C[C@H](C)[C@@H](CN(C)Cc2ccccc2)Oc2c(NC(=O)CCCCCC(=O)Nc3ccccc3N)cccc2C1=O
// result inactive

// query Here is the next molecule: C=CCOC(=O)[C@@H]1[C@H]2C(=O)O[C@H](c3ccccc3)[C@H](c3ccccc3)N2[C@H](c2ccc(OCCOC(=O)[C@H]3C[C@H]4C(=O)N[C@@H](CC(C)C)C(=O)N4[C@H]3c3cccc(OCCO)c3)cc2)[C@@]12C(=O)Nc1ccccc12
// result inactive

// query Here is the next molecule: C[C@H](CO)N1C[C@H](C)[C@@H](CN(C)C(=O)NC2CCCCC2)Oc2c(NC(=O)c3cnccn3)cccc2C1=O
// result inactive

// query Here is the next molecule: C[C@H]1CCCCO[C@H](CN(C)C(=O)Nc2ccc3c(c2)OCO3)[C@@H](C)CN([C@@H](C)CO)C(=O)c2cc(NC(=O)C3CCCCC3)ccc2O1
// result inactive

// query Here is the next molecule: CCc1nn(C)c2c(=O)c(=O)c2n(C)[nH]1
// result inactive

// query Here is the next molecule: O=c1c(O)c(-c2ccccc2)oc2ccccc12
// result inactive

// query Here is the next molecule: C[C@@H]1CCCCO[C@H](CN(C)Cc2ccccc2)[C@H](C)CN([C@@H](C)CO)C(=O)c2cc(NC(=O)Nc3ccccc3)ccc2O1
// result inactive

// query Here is the next molecule: COc1ccccc1C(=O)Nc1ccc2c(c1)C(=O)N(C)[C@H]1CC[C@@H](CC(=O)NCc3ccc(Cl)c(Cl)c3)O[C@@H]1CO2
// result active

// query Here is the next molecule: O=c1c(O)c(-c2ccc(O)cc2)oc2ccccc12
// result active

// query Here is the next molecule: COc1ccccc1C(=O)Nc1ccc2c(c1)C(=O)N(C)[C@@H]1CC[C@H](CC(=O)NCCc3ccncc3)O[C@H]1CO2
// result inactive

// query Here is the next molecule: NCCC(=O)N[C@@H](Cc1cnc[nH]1)C(=O)O.[Zn+3]
// result inactive

// query Here is the next molecule: C[C@H](CO)N1C[C@H](C)[C@@H](CN(C)C(=O)Nc2cccc(Oc3ccccn3)c2)OCc2cnnn2CCCC1=O
// result inactive

// query Here is the next molecule: CC(C)NC(=O)N(C)C[C@H]1Oc2ccc(NC(=O)Cc3ccccc3)cc2CC(=O)N([C@H](C)CO)C[C@H]1C
// result inactive

// query Here is the next molecule: C[C@@H]1CN([C@H](C)CO)C(=O)c2cc(NC(=O)Nc3ccccc3)ccc2O[C@@H](C)CCCCO[C@@H]1CN(C)Cc1ccccc1
// result active

// query Here is the next molecule: O=C1CCNc2cc3ccccc3cc21
// result active

// query Here is the next molecule: O=c1c(O)c(-c2ccc(O)c(O)c2)oc2cc(O)cc(O)c12
// result inactive

// query Here is the next molecule: C[C@H]1CCCCO[C@@H](CN(C)C(=O)c2ccccc2)[C@@H](C)CN([C@@H](C)CO)C(=O)c2cc(NC(=O)C3CCCCC3)ccc2O1
// result inactive

// query Here is the next molecule: C[C@@H]1CN([C@H](C)CO)C(=O)c2cc(NC(=O)Cn3cnnn3)ccc2O[C@H]1CN(C)S(=O)(=O)c1cccs1
// result inactive

// query Here is the next molecule: COc1ccc(NC(=O)N(C)C[C@H]2OCCCC[C@@H](C)Oc3ccc(NC(=O)Cc4ccccc4)cc3C(=O)N([C@@H](C)CO)C[C@H]2C)cc1
// result inactive

// query Here is the next molecule: CN(C)CC(=O)N1CC(=O)N2[C@H](CO)[C@@H](c3ccc(C#Cc4cccnc4)cc3)[C@H]2C1
// result inactive

// query Here is the next molecule: CCOc1ccc(NC(=O)CC(C)O)cc1 (stereo not given)
// result inactive

// query Here is the next molecule: C[C@H](CO)N1C[C@H](C)[C@H](CN(C)Cc2ccccc2)OCCCC[C@H](C)Oc2ccc(NC(=O)Nc3ccccc3)cc2C1=O
// result inactive

// query Here is the next molecule: CN(CP(=O)(O)CN1CCOCC1)S(C)(=O)=O
// result inactive

// query Here is the next molecule: O=c1c(O)c(-c2ccc(O)c(O)c2)oc2cc(O)ccc12
// result active

----------
System: HepG2
Test: cytotoxicity call (relative viability < 0.9)
Conditions: 10 µM
In all, about 39,000 compounds went through this assay and about 3,300 (8.5%) were called active. This excerpt belongs to a sample that is enriched for actives.
Please state which outcome applies, choosing from active, inactive

// query Recorded test call requested for CCCNC(=O)C[C@@H]1CC[C@H]2[C@H](COc3ccc(NC(=O)c4ccc5c(c4)OCO5)cc3C(=O)N2C)O1
// result inactive

// query Here is the next molecule: C[C@H](CO)N1C[C@H](C)[C@H](CN(C)Cc2ccc(Cl)c(Cl)c2)OCCCC[C@H](C)Oc2ccc(NC(=O)NC3CCCCC3)cc2C1=O
// result active

// query Here is the next molecule: COc1ccc2c3c([nH]c2c1)[C@@H](CO)N(C[C@]13CCN(CC1)Cc1ccc(cc1)F)C(=O)Nc1ccc(cc1)F
// result active

// query Here is the next molecule: C[C@@H]1CN([C@@H](C)CO)C(=O)c2cc(NC(=O)NC3CCCCC3)ccc2O[C@@H](C)CCCCO[C@H]1CN(C)Cc1ccc(Cl)c(Cl)c1
// result active

// query Here is the next molecule: C[C@@H]1CN([C@H](C)CO)C(=O)c2cccc(NS(C)(=O)=O)c2O[C@@H]1CN(C)C(=O)Nc1ccccc1
// result inactive

// query Here is the next molecule: CNC[C@@H]1OCCCC[C@@H](C)Oc2ccc(NC(=O)c3ccncc3)cc2C(=O)N([C@@H](C)CO)C[C@H]1C
// result inactive

// query Here is the next molecule: COc1ccc2c3c([nH]c2c1)[C@H](CO)N(C[C@]13CCN(CC1)S(=O)(=O)C)C(=O)Nc1ccc(cc1)F
// result inactive

// query Here is the next molecule: C[C@H](CO)N1C[C@H](C)[C@@H](CN(C)Cc2ccc(Cl)c(Cl)c2)OCCCC[C@H](C)Oc2ccc(NC(=O)NC3CCCCC3)cc2C1=O
// result active

// query Here is the next molecule: COc1ccc2c3c([nH]c2c1)[C@@H](CO)N(C[C@]13CCN(CC1)C(=O)Nc1ccccc1)C(=O)Nc1ccc(cc1)F
// result inactive

// query Here is the next molecule: COc1ccc2c3c([nH]c2c1)[C@@H](CO)N(C[C@]13CCN(CC1)Cc1ccccc1OC)C(=O)Nc1ccc(cc1)F
// result active

// query Here is the next molecule: COc1ccc2c3c([nH]c2c1)[C@@H](CO)N(C[C@]13CCN(CC1)S(=O)(=O)C)C(=O)Nc1ccc(cc1)F
// result inactive

// query Here is the next molecule: C[C@@H]1CCCCO[C@@H](CN(C)Cc2ccc(Cl)c(Cl)c2)[C@@H](C)CN([C@H](C)CO)C(=O)c2cc(NC(=O)NC3CCCCC3)ccc2O1
// result inactive

// query Here is the next molecule: C[C@H](CO)N1C[C@H](C)[C@@H](CN(C)C(=O)Nc2cccc3ccccc23)OCc2cn(nn2)CCCC1=O
// result inactive

// query Here is the next molecule: COC(=O)[C@@H]1CC(=O)N(C(C)C)C1
// result inactive

// query Here is the next molecule: C[C@@H]1CN([C@H](C)CO)C(=O)c2cc(NC(=O)NC3CCCCC3)ccc2O[C@@H](C)CCCCO[C@@H]1CN(C)Cc1ccc(Cl)c(Cl)c1
// result inactive

Sourced from the antibiotic and cytotoxicity screens of Wong et al. (2023)
